# Test system: PPARg:RXRa IVT, anti-PPARg (NR concentration 270 nM, RXRa partner concentration 90 nM)
# run.description: PBM binding z-score (relative to random genomic background probes); higher = stronger binding; sequences stand for … in GC…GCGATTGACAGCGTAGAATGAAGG
endpoint.name: PBM binding z-score

# ordered.residues, endpoint.name, test.value
rows = [
    ("TCAATTAGTTGAAGGGCAACCGACGAGTCCGTTT", "PBM binding z-score", 0.225),
    ("CCTCGGAGTACAGAAGGTCAGAGCTGTCCGCTTT", "PBM binding z-score", -0.113),
    ("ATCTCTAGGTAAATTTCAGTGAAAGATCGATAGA", "PBM binding z-score", 1.5),
    ("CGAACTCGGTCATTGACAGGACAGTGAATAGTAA", "PBM binding z-score", 2.26),
    ("ATCTCTAGGTAAACAAGTTCAGTGAATGCCGAAC", "PBM binding z-score", 2.16),
    ("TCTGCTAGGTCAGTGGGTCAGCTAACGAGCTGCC", "PBM binding z-score", 5.76),
]
